# test-parameters: buffer; pH 7.4; 200.0 µM
Everything with solubility kinetic lower than 8 µg/mL is condition not met; everything else, including exactly 8 µg/mL, is condition met.

CCOC(=O)c1oc2ccccc2c1NC(=O)CCl = condition met
Cc1ccc(Cl)cc1NC(=O)C1CC1c1ccccc1 (stereo unspecified) = condition not met
COc1ccc(C2NC(=O)NC3=C2C(=O)CCC3)cc1 (stereo unspecified) = condition met
CCC(OC(=O)c1nsc(Cl)c1Cl)C(=O)NC(C)(C)C (stereo unspecified) = condition met
COc1ccc(N2CCc3c(C)nc4c(OC)cc(OC)cc4c32)cc1 = condition met
CCOc1cc(C(=S)N2CCCC2)ccc1OCc1ccccc1 = condition not met

Lookup: Hi, just wondering whether `O=C(COC(=O)CSc1ccc(Cl)cc1)Nc1ccc2[nH]c(=O)[nH]c2c1` shows solubility kinetic of 8 µg/mL or higher.
Found: condition met

Lookup: API: above_or_equal(metric=solubility kinetic, cutoff=8 µg/mL) for item `C/C(=C/c1ccccc1)C(=O)N1CCC(C)CC1`
Found: condition met

Lookup: Evaluate `O=[N+]([O-])c1ccc(N2CCN(c3ccccc3O)CC2)cc1` : solubility kinetic at minimum 8 µg/mL?
Found: condition not met

Lookup: solubility kinetic >= 8 µg/mL for CC1=C(C(=O)OC(C)C)C(c2ccc(O)cc2)NC(=O)N1 (stereo unspecified) ?
Found: condition met

Lookup: Say whether `CCCc1cc(C(=O)Nc2cc(Cl)ccc2O)no1` shows solubility kinetic of 8 µg/mL or more.
Found: condition not met

###

# test-parameters: buffer; pH 7.4; 200.0 µM
Decision: solubility kinetic compared against 30 µg/mL; not below it gives Y, below it gives N.

O=C(O)C1C2C=CC(C2)C1C(=O)NCc1ccccc1F (stereo unspecified) = Y

Lookup: # check: solubility kinetic of `Cc1c(C(=O)N2C[C@@H](C)O[C@@H](C)C2)oc2c(F)cccc12` is greater than or equal to 30 µg/mL
Found: Y

Lookup: Is solubility kinetic at least 30 µg/mL? Consider Cc1cc2c(cc1C)C(c1cccc(F)c1)CC(=O)N2 (stereo unspecified)
Found: N

Lookup: Given the entry `CCOc1cccc2cc(C(=O)N3CCOCC3)c(=O)oc12` , answer whether its solubility kinetic meets or surpasses 30 µg/mL.
Found: Y

Lookup: Decide: solubility kinetic of `COc1ccc(S(=O)(=O)NCCCN2CCCC2=O)c(OC)c1` >= 30 µg/mL?
Found: Y

Lookup: Hello, I need to know if `NC(=O)CC[C@H](NC(=O)c1ccc(F)cc1)C(=O)N1CCN(Cc2ccc3c(c2)OCO3)CC1` has measured solubility kinetic not below 30 µg/mL. Thanks!
Found: Y

Lookup: Textbook exercise: given the entry `Oc1ccc(N2CCN(Cc3nc4ccccc4[nH]3)CC2)cc1` , state whether its solubility kinetic is greater than or equal to 30 µg/mL.
Found: Y

Lookup: Identify whether the reported solubility kinetic of the following molecule is 30 µg/mL or greater: `COc1ccc(-c2ccc(C(=O)O)o2)c([N+](=O)[O-])c1`
Found: Y

Lookup: Has `Cc1c(C)n(Cc2ccccc2)c2ncnc(NCCO)c12` a recorded solubility kinetic greater than or equal to 30 µg/mL?
Found: Y

Lookup: Given the entry `CCOc1ccccc1CNCCc1ccc2c(c1)OCO2.Cl` , answer whether its solubility kinetic meets or surpasses 30 µg/mL.
Found: Y

###

# test-parameters: buffer; pH 7.4; 200.0 µM
measured-metric: solubility kinetic (µg/mL)
Give the value, in units of µg/mL, as a plain number.

Lookup: Need solubility kinetic, item `Cc1cccc(NC(=O)Cn2c(=O)oc3ccccc32)c1C`
Found: 6.6

Lookup: I am curious: what solubility kinetic value has been reported for `CC(C)(C)Nc1nc2cc([N+](=O)[O-])ccc2o1` ?
Found: 10.9

Lookup: Any idea what its solubility kinetic is? The compound is `CCCN1CN=C(Nc2nc3ccccc3o2)NC1`
Found: 18.9

Lookup: Any idea what its solubility kinetic is? The compound is `COc1ccc(/C=C/C(=O)NCCCN2CCOCC2)cc1`
Found: 43.8

Lookup: // query solubility kinetic value for entry `CC(=O)Nc1ccc2oc(-c3ccccc3)nc2c1`
Found: 13.1

Lookup: For `CCOC(=O)C1CCN(C(=O)Nc2cc(Cl)cc(Cl)c2)CC1` , what is its reported solubility kinetic?
Found: 20.4

###

# test-parameters: buffer; pH 7.4; 200.0 µM
measured-metric: solubility kinetic

CCOC(=O)Cn1c2ccccc2c2nc(C)sc21 = > 41.2 µg/mL

Lookup: I have this compound here, Cc1ccccc1NC1=NC(=S)N(CC(N)=O)C12CCOC(C)(C)C2 (stereo not given) , and I need its recorded solubility kinetic.
Found: > 54.1 µg/mL

Lookup: What does the data say about its solubility kinetic? Entry: COc1ccc(OC)c(CN2CCCC(C(=O)c3sccc3C)C2)c1 (stereo not given)
Found: > 53.9 µg/mL

Lookup: Can you look up the measured solubility kinetic of `COc1cccc(CNc2ccccn2)c1O` for me?
Found: > 34.5 µg/mL

Lookup: Data request, read-out solubility kinetic, for `O=C(CN1C(=O)NC2(CCCC2)C1=O)Nc1cccc(Cl)c1`
Found: > 48.3 µg/mL

Lookup: // query solubility kinetic value for entry `c1ccc(-n2cnc3ccccc32)nc1`
Found: 26.3 µg/mL

Lookup: Any idea what its solubility kinetic is? The compound is `CCc1ncc(C)nc1CC`
Found: 6.7 µg/mL

###

Recorded measurements of log10 of solubility kinetic, one per entry
# test-parameters: buffer; pH 7.4; 200.0 µM
Could you please treat all values as log10 of solubility kinetic in µg/mL?

Worked examples follow.
COc1ccc(C(=O)NC2CCCc3ccccc32)c(OC)c1OC (centres undefined) = 1.62
Cc1ccc(NC(=O)c2ccc3nsnc3c2)c(Cl)c1 = -0.30
COc1ccc(S(=O)(=O)N2CCC(C)CC2)cc1OC = 1.65
Cc1c2ccccc2nc2ccccc12 = 0.90
COc1ccc(/C=C2\SC(N3CCCCC3)=NC2=O)cc1 = 0.11
O=C(/C=C/c1ccco1)Nc1ccc2c(c1)OCO2 = 1.57
Cc1ccc(C(=O)NC2=NCCS2)cc1 = 1.52
N#Cc1nc(-c2ccc(F)cc2)oc1NCc1ccco1 = 0.04

Lookup: Form field: reported log10 of solubility kinetic of `CCOc1ccccc1C(=O)NCCCCNC(=O)c1ccccc1OCC`
Found: 1.01

Lookup: Name the recorded log10 of solubility kinetic for `COC(=O)Nc1cc(C(=O)c2ccc(Cl)cc2Cl)c[nH]1` .
Found: 1.64

Lookup: Report log10 of solubility kinetic for `COc1ccccc1/C=N/OCc1cc(C(C)=O)ccc1OC` please.
Found: 0.92

###

# test-parameters: buffer; pH 7.4; 200.0 µM
Parameter: solubility kinetic. Scope: all listed entries.

Past entries and their recorded results:
O=C(O)c1ccc(NC(=O)C2(c3ccccc3)CCCC2)cc1 = > 46.4 µg/mL
CCCCN(C)Cc1cc(=O)oc2cc3c(cc12)CCCC3 = < 0.6 µg/mL
CC1CCCC(C)N1C(=O)COC(=O)c1cc(F)c(F)cc1Cl (stereo not drawn) = > 51.9 µg/mL
CN(CC#CC(O)(c1ccccc1)c1ccccc1)C(C)(C)C = > 46.1 µg/mL
CC1CCc2[nH]c3ccc(C(=O)NCCCOC(C)C)cc3c2C1 (stereo not drawn) = > 49.3 µg/mL
Cc1ccc2c(c1)C1CN(C)CCC1N2S(=O)(=O)c1ccccc1F (stereo not drawn) = > 54.1 µg/mL
CCN(Cc1ccccc1)C(=O)COc1ccccc1 = > 40.4 µg/mL
Cc1cc(C)n2nc(SCc3ccccc3C(=O)O)nc2n1 = > 47.2 µg/mL
COCC(=O)Nc1ccc2c(c1)OCC(=O)N2Cc1ccc(C)cc1 = 20.9 µg/mL
CC(=O)C1=NOC2C(=O)N(c3ccccc3)C(=O)C12 (stereo not drawn) = > 38.7 µg/mL

Lookup: Reported solubility kinetic for `Cc1[nH]c2ccc3ccccc3c2c(=O)c1C/C=C/Cl` : what is it?
Found: 1.1 µg/mL

Lookup: Returns the measured solubility kinetic for the input compound. Input: `O=C(CCc1ccc(S(=O)(=O)N2CCOCC2)cc1)OCC(=O)c1ccccc1F`
Found: 49.6 µg/mL

Lookup: Dear colleague, I am looking for the recorded solubility kinetic of the following compound: `CC(C)N(C(=O)COC(=O)c1cccnc1Cl)c1ccccc1`
Found: > 49.9 µg/mL

###

# test-parameters: buffer; pH 7.4; 200.0 µM
measured-metric: solubility kinetic

O=c1[nH]c2c(Br)cnc([N+](=O)[O-])c2[nH]1 = > 38.9 µg/mL
O=Nc1ccc(O)c2ncccc12 = > 26.1 µg/mL
COC(=O)c1cc(S(=O)(=O)NCCCc2ccco2)c[nH]1 = > 46.9 µg/mL
O=C(O)[C@H](Cc1ccccc1)NC(=O)N1CCCCCC1 = > 43.6 µg/mL
O=c1oc2cc(Br)ccc2n1Cc1ccccc1 = < 0.7 µg/mL

Lookup: Query: solubility kinetic; subject: `Cc1ccnc(N2C(=O)c3ccccc3C2=O)c1`
Found: > 35.7 µg/mL

Lookup: Requested read-out: solubility kinetic. Entry: `Cl.c1ccc2c(c1)nc1n2CCN1CCN1CCCC1`
Found: > 49.4 µg/mL
